# systemTested: human adenosine A2A receptor (A2aR) (human, UniProt P29274 1-412)
# Sequence (P29274 whole entry): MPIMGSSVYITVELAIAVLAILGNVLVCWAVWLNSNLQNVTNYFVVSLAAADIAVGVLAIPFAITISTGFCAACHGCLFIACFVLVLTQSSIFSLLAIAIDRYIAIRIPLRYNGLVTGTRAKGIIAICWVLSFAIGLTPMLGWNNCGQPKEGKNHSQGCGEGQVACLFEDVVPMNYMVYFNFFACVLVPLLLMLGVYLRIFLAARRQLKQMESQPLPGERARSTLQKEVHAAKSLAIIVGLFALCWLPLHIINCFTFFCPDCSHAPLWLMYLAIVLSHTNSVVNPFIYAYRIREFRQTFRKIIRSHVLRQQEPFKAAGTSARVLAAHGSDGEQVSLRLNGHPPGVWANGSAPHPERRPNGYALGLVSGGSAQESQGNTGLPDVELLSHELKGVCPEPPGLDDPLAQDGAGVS
# procedureSummary: cell-based or functional assay
Below, each entry is listed alongside its reported IC50 of blocking activity, cAMP-Glo, 300 nM NECA, HEK293-hA2aR cells, supernatant.
measurementName: IC50 of blocking activity, cAMP-Glo, 300 nM NECA, HEK293-hA2aR cells, supernatant (nM)

{"binder": "Hu3F6-H5/Hu3F6-L3 (antibody, human IgG1, V domains shown, Human IgG1 FES (L234F, L235E, P331S) and human Ig kappa constant domains; also called Hu3F6 VH5/VL3) VH: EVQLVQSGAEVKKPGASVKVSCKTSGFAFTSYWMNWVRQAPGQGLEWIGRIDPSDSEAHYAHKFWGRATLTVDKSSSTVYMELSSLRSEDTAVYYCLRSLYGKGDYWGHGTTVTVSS VL: DVVMTQSPLSLPVTLGQPASISCRSSQSLVHRNGNTYLEWYQQRPGQSPRLLIYKVSNRFSGVPDRFSGSGSGTDFTLKISRVEAEDVGVYYCYQGSHVPLTFGGGTKVEIK", "unitsText": "nM", "numericValue": 1.3}
{"binder": "Hu3F6-H3/Hu3F6-L5 (antibody, human IgG1, V domains shown, Human IgG1 FES (L234F, L235E, P331S) and human Ig kappa constant domains; also called Hu3F6 VH3/VL5; Hu3F6-VH3/VL5) VH: EVQLVQSGAEVKKPGASVKVSCKTSGFAFTSYWMNWVRQAPGQGLEWIGRIDPSDSEAHYHHKFWGRATLTVDTSSSTVYMELSSLRSEDTAVYYCLRSLYGKGDYWGHGTTVTVSS VL: DVVMTQTPLSLSVTPGQPASISCRSSQSLVHRNGNTYLEWYLQKPGQSPQLLIYKVSNRFSGVPDRFSGSGSGTDFTLKISRVEAEDVGVYYCYQGSHVPLTFGGGTKVEIK", "unitsText": "nM", "numericValue": 5.3}
{"binder": "Hu3F6-H5/Hu3F6-L4 (antibody, human IgG1, V domains shown, Human IgG1 FES (L234F, L235E, P331S) and human Ig kappa constant domains; also called Hu3F6 VH5/VL4) VH: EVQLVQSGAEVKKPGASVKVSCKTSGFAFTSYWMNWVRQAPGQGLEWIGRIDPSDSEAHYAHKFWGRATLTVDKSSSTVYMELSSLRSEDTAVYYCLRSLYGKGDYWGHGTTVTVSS VL: DIVMTQTPLSLSVTPGQPASISCRSSQSLVHRNGNTYLEWYLQKPGQSPQLLIYKVSNRFSGVPDRFSGSGSGTDFTLKISRVEAEDVGVYYCYQGSHVPLTFGGGTKVEIK", "unitsText": "nM", "numericValue": 7.8}
